# assay-details: Inhibition of Talaromyces flavus beta-N-acetylhexosaminidase GH20 using p-nitrophenyl 2-acetamido-2-deoxy-beta-D-glucosaminide substrate at pH 7.0 and 25 degC
observed-property: Ki (µM)

A: CC1=N[C@@H]2[C@@H](O)[C@@H](O)[C@@H](CO)O[C@@H]2S1
B: CC1=N[C@@H]2[C@@H](O)[C@H](O)[C@@H](CO)O[C@@H]2S1
C: CC1=N[C@H]2[C@H](O[C@H](CO)C[C@@H]2O)S1
Asked: Put the above compounds in order of rising Ki, beginning with the smallest. Lab note: final answer is the ordered label list.
Given back: B, A, C
(B: 42.7 µM, A: 393 µM, C: 1890 µM)
